System: CSF1R
test context: concentration: 1 μM,replicates: in singlicate; n = 1;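 note: KINOMEscan kinase panel screen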
So basically: is %Inh under 20%? Then met. Not under? Then not met.

## Input Please state whether %Inh is below 20% for COc1cccc(C2=C(Nc3cccc(Cl)c3)C(=O)NC2=O)c1
## Output met

## Input Please state whether %Inh is below 20% for Cc1ccc2c(-c3ccnc(Nc4ccc(C(F)(F)F)cc4)n3)cnn2n1
## Output met

## Input Please state whether %Inh is below 20% for CCOC(=O)N1CCC(n2cnc(-c3ccc(F)cc3)c2-c2ccnc(N)n2)CC1
## Output not met

## Input Please state whether %Inh is below 20% for O=C(Nc1cccc(Oc2ccc3nccn3n2)c1)Nc1cccc(C(F)(F)F)c1
## Output not met

## Input Please state whether %Inh is below 20% for COC(=O)Nc1nc2cc(Oc3ccc(NC(=O)Nc4cc(C(F)(F)F)ccc4Cl)cc3)ccc2[nH]1.Cl
## Output not met

---

Tested on: PIP5K2B
test context: concentration: 1 μM,replicates: in singlicate; n = 1
result type: %Inh (%)
Give the number; % is assumed, so skip it.

## Input Item CC(C)c1nc(-c2cccc(NS(=O)(=O)c3ccccc3)c2)c(-c2ccnc(Nc3ccc4c(c3)CN(C)CC4)n2)s1 [GSK1649598] : provide %Inh
## Output 20

## Input Item CN1CCN(CCCNc2nccc(-c3c(-c4ccc(F)cc4)nn4cc(C(N)=O)ccc34)n2)CC1 [GW622475] : provide %Inh
## Output 12

## Input Item Nc1nccc(-c2ccc3c(N)n[nH]c3c2)n1 [GSK1034945] : provide %Inh
## Output 48

## Input Item Cc1ccc(Nc2ccnc(Nc3ccc4c(c3)CS(=O)(=O)C4)n2)cc1O.Cl [GW579362] : provide %Inh
## Output 80

## Input Item Cc1ccc(C(=O)Nc2ccc(Oc3ccc4nc(NC(=O)C5CC5)cn4c3)c(F)c2)c(=O)n1-c1ccccc1 : provide %Inh
## Output 34

## Input Item CSc1nccc(-c2c(-c3ccc(F)cc3)ncn2CCCN2CCOCC2)n1.Cl [SB-217146] : provide %Inh
## Output 0

## Input Item Cc1cccc(-c2nc(Nc3ccncc3)c3sccc3n2)n1 [GW869641] : provide %Inh
## Output 3

## Input Item CCCC(=O)Nc1n[nH]c2ncccc12 [SB-601436] : provide %Inh
## Output 39

## Input Item CC(=O)Nc1nc2cnc(Nc3cc(NC(=O)c4cccc(CC(C)(C)C#N)c4)ccc3C)nc2s1 : provide %Inh
## Output 33

## Input Item COC(=O)c1cccc(NC(=O)NC2CCN(c3ccnc(NCc4ccc(F)cc4)n3)CC2)c1 [GSK1379860] : provide %Inh
## Output 19

## Input Item O=C(NCC1CC1)c1ccc(-c2cc(C(=O)NC3CC3)ccc2F)cc1 [GW810445] : provide %Inh
## Output 0

## Input Item CCNCC(Cc1ccccc1)NC(=O)c1cc(Br)c(-c2ccnc3[nH]ccc23)s1.Cl.Cl (stereo not drawn) [GSK1383280] : provide %Inh
## Output 16

## Input Item O=C1NCCc2[nH]c(-c3ccncc3)cc21 : provide %Inh
## Output 4

## Input Item Cn1ccc2ncnc(Oc3ccc(NC(=O)Nc4cc(C(C)(C)C)on4)c(Cl)c3)c21 : provide %Inh
## Output 38

## Input Item N#Cc1cccc(C(=O)NC2CCN(c3ccnc(Nc4ccc(F)cc4)n3)C2)c1 (stereo not drawn) [GSK1379708] : provide %Inh
## Output 0

## Input Item O=C(Nc1ccccc1)c1cccc(Oc2ccc3nccn3n2)c1 : provide %Inh
## Output 15

## Input Item C[C@@H](Oc1cc(-n2cnc3ccc(-c4ccncc4)cc32)sc1C(N)=O)c1ccccc1Cl [GSK483724] : provide %Inh
## Output 13

## Input Item FC(F)(F)c1cc(Br)cc(Nc2nccc(-c3cnn4ncccc34)n2)c1 [GW810578] : provide %Inh
## Output 0

## Input Item CC(=O)Nc1ccc(-c2cc3ncnc(SCC(=O)O)c3s2)cc1 : provide %Inh
## Output 0

## Input Item CCN1CCN(CCCC(=O)Nc2n[nH]c3nc(-c4ccc(O)cc4)c(Br)cc23)CC1 [SB-731579] : provide %Inh
## Output 0

## Input Item Cl.c1ccc(Oc2ccc(Nc3ccnc4cc(-c5ccc(CN6CCNCC6)o5)ccc34)cc2)nc1 [GW567142] : provide %Inh
## Output 0

## Input Item Cl.Nc1n[nH]c2cc(-c3ccccn3)ccc12 [GSK2189892] : provide %Inh
## Output 7

## Input Item CCn1c(-c2nonc2N)nc2cncc(Br)c21 [SB-738004] : provide %Inh
## Output 28

## Input Item Cc1ccn2nc(-c3ccc(F)cc3)c(-c3ccncc3)c2c1.Cl [GW457859] : provide %Inh
## Output 15

## Input Item CC(C(=O)NC1CCN(c2ccnc(Nc3ccc(F)cc3)n2)C1)c1ccc(Cl)cc1 (stereo not drawn) [GSK1379713] : provide %Inh
## Output 1

## Input Item Cl.Cl.NC[C@H](CC1CCCCC1)NC(=O)c1ccc(-c2ccnc3[nH]ccc23)s1 [GSK1581428] : provide %Inh
## Output 75

## Input Item Cc1ccc2c(-c3ccnc(Nc4ccc(C(F)(F)F)cc4)n3)cnn2n1 [GW819776] : provide %Inh
## Output 0

## Input Item COc1cc2ncn(-c3cc(OCC4CCCCC4)c(C(N)=O)s3)c2cc1OC [GSK204559] : provide %Inh
## Output 12

## Input Item O=C(NOCC1CC1)c1cc(Br)c(F)c(F)c1Nc1ccc(I)cc1Cl : provide %Inh
## Output 4

## Input Item Cc1ccc(CC(=O)N2CCc3cc(-c4cn(C)c5ncnc(N)c45)ccc32)cc1 [GSK2634758] : provide %Inh
## Output 32

## Input Item c1ccc(Oc2ccc(Nc3ccnc4ccc(-c5ccccn5)cc34)cc2)cc1 [GW407034] : provide %Inh
## Output 25

## Input Item CNC(=O)c1ccccc1Nc1nc(Nc2cccc(CS(C)(=O)=O)c2)ncc1C.O=CO [GSK1520489] : provide %Inh
## Output 84

## Input Item Cn1ccc2ncnc(Oc3ccc(NC(=O)Nc4cccc(C(F)(F)F)c4)c(Cl)c3)c21 : provide %Inh
## Output 2

## Input Item COc1cccc(CNC(=O)NC2CCN(c3ccnc(Nc4cc(OC)c(OC)c(OC)c4)n3)C2)c1 (stereo not drawn) [GSK1379765] : provide %Inh
## Output 14

## Input Item Cc1cccc2c(-c3ccncc3)c(-c3ccc(F)cc3)nn12.Cl [GW461487] : provide %Inh
## Output 10

## Input Item O=C(Nc1cccc(C(F)(F)F)c1)c1cccc(Oc2ccc3nccn3n2)c1 : provide %Inh
## Output 14

---

System: FLT3
test context: concentration: 1 μM,replicates: in singlicate; n = 1
result type: %Inh
Report the figure along with its unit, number first.

## Input Item CS(=O)c1ccc(-c2coc3ccc(-c4n[nH]c(=O)o4)cc23)cc1 (stereo not drawn) : provide %Inh
## Output 16%

## Input Item C[C@@H]1CNc2c(sc3ccc4nc(-c5ccc(O)cc5)ccc4c23)C(=O)N1 : provide %Inh
## Output 16%

## Input Item NC(=O)Nc1sc(-c2ccc(F)cc2)cc1C(N)=O : provide %Inh
## Output 50%

## Input Item COC(=O)c1cccc(NC(=O)NC2CCN(c3ccnc(NCc4ccc(F)cc4)n3)CC2)c1 : provide %Inh
## Output 0%

## Input Item OCCn1cc(-c2cnc3nnn(Cc4ccc5ncccc5c4)c3n2)cn1 : provide %Inh
## Output 0%

## Input Item COC(=O)Nc1nc2cc(Oc3ccc(NC(=O)Nc4cc(C(F)(F)F)ccc4Cl)cc3)ccc2[nH]1.Cl : provide %Inh
## Output 99.1%

## Input Item C[C@@H]1CCN(C(=O)N2CCCC2)C[C@@H]1N(C)c1ncnc2[nH]ccc12 : provide %Inh
## Output 38%

## Input Item Cc1cccc(-c2nc(Nc3ccncc3)c3sccc3n2)n1 : provide %Inh
## Output 41%

## Input Item O=C(Nc1cccc(C(F)(F)F)c1)c1cccc(Oc2ccc3nccn3n2)c1 : provide %Inh
## Output 18%

---

Tested on: NEK4
test context: concentration: 1 μM,replicates: in singlicate; n = 1
Record form. Attribute: %Inh. Fill in for each entry.
Give the number; % is assumed, so skip it.

## Input Item Cn1ccc2ncnc(Oc3ccc(NC(=O)Nc4cccc(C(F)(F)F)c4)c(F)c3)c21 : provide %Inh
## Output 0

## Input Item Cn1cc(-c2cccc3c(N)c(C(N)=O)nnc23)cn1 : provide %Inh
## Output 16

## Input Item CCn1c(-c2nonc2N)nc2cncc(Br)c21 : provide %Inh
## Output 0

## Input Item COC(=O)Nc1nc2cc(Oc3ccc(NC(=O)Nc4cc(C(F)(F)F)ccc4Cl)cc3)ccc2[nH]1.Cl : provide %Inh
## Output 3

## Input Item CCn1c(-c2nonc2N)nc2cncc(CNC3CCNCC3)c21.Cl : provide %Inh
## Output 28

## Input Item Cc1ccc(C(=O)Nc2ccc(Oc3ccc4nc(NC(=O)C5CC5)cn4c3)c(F)c2)c(=O)n1-c1ccccc1 : provide %Inh
## Output 0

## Input Item Cc1cccc(-c2nc(Nc3ccncc3)c3sccc3n2)n1 : provide %Inh
## Output 14

## Input Item C[C@@H]1CNc2c(sc3ccc4nc(-c5ccncc5)ccc4c23)C(=O)N1 : provide %Inh
## Output 0

## Input Item OCCn1cc(-c2cnc3nnn(Cc4ccc5ncccc5c4)c3n2)cn1 : provide %Inh
## Output 0

## Input Item Cn1ccc2ncnc(Oc3ccc(NC(=O)Nc4ccnc(C(F)(F)F)c4)c(Cl)c3)c21 : provide %Inh
## Output 0

## Input Item CCN1CCN(CCCC(=O)Nc2n[nH]c3nc(-c4ccc(O)cc4)c(Br)cc23)CC1 : provide %Inh
## Output 0

## Input Item Cn1ccc2ncnc(Oc3ccc(NC(=O)Nc4cccc(C(F)(F)F)c4)c(Cl)c3)c21 : provide %Inh
## Output 0

## Input Item O=C(Nc1cccc(C(F)(F)F)c1)c1cccc(Oc2ccc3nccn3n2)c1 : provide %Inh
## Output 0

## Input Item COc1cc2ncn(-c3cc(OCC4CCCCC4)c(C(N)=O)s3)c2cc1OC : provide %Inh
## Output 10

## Input Item Cc1cccc2c(-c3ccncc3)c(-c3ccc(F)cc3)nn12.Cl : provide %Inh
## Output 0

## Input Item COC(=O)c1cccc(NC(=O)NC2CCN(c3ccnc(Nc4cc(OC)c(OC)c(OC)c4)n3)C2)c1 (centres unmarked) : provide %Inh
## Output 0

## Input Item Cc1ccc2c(-c3ccnc(Nc4ccc(C(F)(F)F)cc4)n3)cnn2n1 : provide %Inh
## Output 9

## Input Item Cl.Nc1n[nH]c2cc(-c3ccccn3)ccc12 : provide %Inh
## Output 0

## Input Item N#Cc1cccc(C(=O)NC2CCN(c3ccnc(Nc4ccc(F)cc4)n3)C2)c1 (centres unmarked) : provide %Inh
## Output 11

## Input Item CS(=O)c1ccc(-c2coc3ccc(-c4n[nH]c(=O)o4)cc23)cc1 (centres unmarked) : provide %Inh
## Output 0

## Input Item O=c1[nH]cc(-c2ccc(O)cc2)c2sc(-c3ccncc3)cc12 : provide %Inh
## Output 0

## Input Item CC(=O)Nc1ccc(-c2cc3ncnc(SCC(=O)O)c3s2)cc1 : provide %Inh
## Output 6

## Input Item CNC(=O)c1ccccc1Nc1nc(Nc2cccc(CS(C)(=O)=O)c2)ncc1C.O=CO : provide %Inh
## Output 70

## Input Item O=C(Nc1ccccc1)c1cccc(Oc2ccc3nccn3n2)c1 : provide %Inh
## Output 0

## Input Item CN(c1ccc2c(c1)nc(NCc1ccc(F)cc1)n2C)c1ccnc(Nc2ccc(CS(C)(=O)=O)cc2)n1.Cl : provide %Inh
## Output 0

## Input Item O=C1NCCc2[nH]c(-c3ccncc3)cc21 : provide %Inh
## Output 0
